target: PDZD7 PDZ1ext G103R (mouse)
test name: NMR titration; 1H-15N HSQC chemical shift perturbations of the labelled PDZ construct on addition of ADGRV1pbm peptide; Tris HCl pH 7.5 (50 mM), 25°C; apparent Kd, mean over at least 10 shifting peaks
assay metric: Kd (µM)

binder	assay metric	reading
VELRRIPIADTHL (ADGRV1, last 13 residues, free C-terminal carboxylate as printed (-COOH); The other ADGRV1 constructs are murine) [ADGRV1pbm peptide (last 13 residues of ADGRV1, with its PDZ binding motif)]	Kd	1190

The measurements presented in this section are drawn from paper PMC9274004.
